The measurements presented in this section are drawn from ChEMBL document CHEMBL3763046.

Provide the reported Cmax of each item.
- Test system: Mus musculus
- measurement.protocol: Cmax in mouse at 35 mg/kg, po administered as single dose measured at 0.25 to 24 hrs by LC/MS/MS analysis
- Type: ADME, organism-based
- Parameters: dose 35 mg/kg, route oral
- test.conditions: in vivo
Kindly provide the numeric value in µg/mL only, without the unit symbol.

Cmax reading for `COc1cc2c(Oc3ccc(NC(=S)N/N=C/c4ccccc4)cc3F)ccnc2cc1OCCCN1CCCCC1` : 0.087

The compound identified as `C=CCc1cccc(/C=N/NC(=O)Nc2ccc(Oc3ccnc4cc(OCCCN5CCCCC5)c(OC)cc34)c(F)c2)c1O` registered its Cmax at 0.68

Input `COc1cc2c(Oc3ccc(NC(=O)N/N=C/c4ccc(F)cc4Cl)cc3F)ccnc2cc1OCCCN1CCCCC1` . Output Cmax: 0.078

Per the record, `COc1cc2c(Oc3ccc(/C=N/NC(=O)Nc4ccc(F)cc4Br)cc3F)ccnc2cc1OCCCN1CCCCC1` has Cmax of 0.073

###

- Tested on: Mus musculus
- measurement.protocol: AUC (0 to infinity) in mouse at 20 mg/kg, iv or 35 mg/kg, po administered as single dose by LC/MS/MS analysis
- Format: ADME, organism-based
- test.conditions: in vivo
value.kind: AUC

Measured AUC of `COc1cc2c(Oc3ccc(/C=N/NC(=O)Nc4ccc(F)cc4Br)cc3F)ccnc2cc1OCCCN1CCCCC1` : 1210 ng·h/mL

Sample `COc1cc2c(Oc3ccc(NC(=O)N/N=C/c4ccc(F)cc4Cl)cc3F)ccnc2cc1OCCCN1CCCCC1` ; AUC observed: 910 ng·h/mL

So, `C=CCc1cccc(/C=N/NC(=O)Nc2ccc(Oc3ccnc4cc(OCCCN5CCCCC5)c(OC)cc34)c(F)c2)c1O` ? Its AUC was 16500 ng·h/mL

Record summary for `COc1cc2c(Oc3ccc(NC(=S)N/N=C/c4ccccc4)cc3F)ccnc2cc1OCCCN1CCCCC1` : reported AUC = 7340 ng·h/mL

###

- target.system: Platelet-derived growth factor receptor alpha (Homo sapiens, UniProt P16234)
- Sequence (P16234 whole entry): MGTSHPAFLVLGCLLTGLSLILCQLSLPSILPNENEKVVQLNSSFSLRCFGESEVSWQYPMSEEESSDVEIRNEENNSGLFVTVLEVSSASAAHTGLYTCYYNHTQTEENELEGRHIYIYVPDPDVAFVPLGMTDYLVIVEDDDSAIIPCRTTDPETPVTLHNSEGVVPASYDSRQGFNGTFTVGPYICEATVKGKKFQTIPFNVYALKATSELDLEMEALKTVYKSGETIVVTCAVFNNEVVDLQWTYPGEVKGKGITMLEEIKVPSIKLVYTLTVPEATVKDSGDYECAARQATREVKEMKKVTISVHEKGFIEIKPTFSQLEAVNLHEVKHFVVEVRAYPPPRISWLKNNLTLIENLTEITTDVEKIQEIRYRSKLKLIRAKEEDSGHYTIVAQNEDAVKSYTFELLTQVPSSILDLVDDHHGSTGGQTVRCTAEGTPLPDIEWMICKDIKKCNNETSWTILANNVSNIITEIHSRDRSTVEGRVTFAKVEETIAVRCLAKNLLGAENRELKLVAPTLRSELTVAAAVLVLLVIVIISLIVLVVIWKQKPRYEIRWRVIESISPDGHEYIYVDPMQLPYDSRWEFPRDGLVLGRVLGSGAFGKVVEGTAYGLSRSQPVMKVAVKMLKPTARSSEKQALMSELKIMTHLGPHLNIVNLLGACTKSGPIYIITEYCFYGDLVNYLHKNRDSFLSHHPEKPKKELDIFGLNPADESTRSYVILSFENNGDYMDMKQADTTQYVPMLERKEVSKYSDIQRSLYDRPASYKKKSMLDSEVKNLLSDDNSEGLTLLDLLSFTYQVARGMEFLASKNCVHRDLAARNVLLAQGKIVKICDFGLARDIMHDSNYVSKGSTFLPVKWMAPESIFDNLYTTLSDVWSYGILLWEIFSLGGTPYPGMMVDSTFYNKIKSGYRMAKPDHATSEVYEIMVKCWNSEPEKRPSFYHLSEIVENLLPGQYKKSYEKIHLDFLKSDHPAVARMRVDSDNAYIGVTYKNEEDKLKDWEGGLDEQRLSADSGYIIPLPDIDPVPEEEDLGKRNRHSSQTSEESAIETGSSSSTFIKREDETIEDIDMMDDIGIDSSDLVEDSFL
value.kind: pIC50
Would you please state pIC50, meaning minus log10 of the concentration in mol/L, as a bare number?

Tested system Platelet-derived growth factor receptor alpha (Homo sapiens, UniProt P16234); pIC50 recorded for `C=CCc1cccc(/C=N/NC(=O)Nc2ccc(Oc3ccnc4cc(OCCCN5CCCCC5)c(OC)cc34)c(F)c2)c1O` was 6.67

###

value.kind: pIC50
pIC50 (log units): -log10 of the concentration in mol/L.

pIC50 value, target or system Macrophage-stimulating protein receptor (Homo sapiens, UniProt Q04912), for `C=CCc1cccc(/C=N/NC(=O)Nc2ccc(Oc3ccnc4cc(OCCCN5CCCCC5)c(OC)cc34)c(F)c2)c1O` : 7.84

###

Could you please report measured t1/2 for the items listed next?
- Tested on: Mus musculus
- measurement.protocol: Half life in mouse at 20 mg/kg, iv or 35 mg/kg, po administered as single dose by LC/MS/MS analysis
- Type: ADME, organism-based
- test.conditions: in vivo
Write the value in h as a bare number.

Consider `COc1cc2c(Oc3ccc(/C=N/NC(=O)Nc4ccc(F)cc4Br)cc3F)ccnc2cc1OCCCN1CCCCC1` . Its measured t1/2 is 5.07

The measured t1/2 associated with `COc1cc2c(Oc3ccc(NC(=S)N/N=C/c4ccccc4)cc3F)ccnc2cc1OCCCN1CCCCC1` reads 13.48

Sample `COc1cc2c(Oc3ccc(NC(=O)N/N=C/c4ccc(F)cc4Cl)cc3F)ccnc2cc1OCCCN1CCCCC1` ; t1/2 observed: 3.3

Record `C=CCc1cccc(/C=N/NC(=O)Nc2ccc(Oc3ccnc4cc(OCCCN5CCCCC5)c(OC)cc34)c(F)c2)c1O` , field t1/2: 13.75

###

- Tested on: A549
- measurement.protocol: Cytotoxicity against human A549 cells after 72 hrs by MTT assay
- Assay type: functional, cell-based
- test.conditions: A549, 72 h
value.kind: pIC50
Remember, pIC50 is on a log scale: it is -log10 of the molar concentration.

Entry `COc1cc2c(Oc3ccc(NC(=O)N/N=C/c4ccc(C(F)(F)F)cc4)cc3F)ccnc2cc1OCCCN1CCCC1` , pIC50 reported as 6.10

The reported pIC50 of the compound `COc1cc2c(Oc3ccc(NC(=O)N/N=C/c4ccc(OC(F)(F)F)cc4)cc3F)ccnc2cc1OCCCN1CCCCC1` was 6.23

pIC50 reading for `COc1cc2c(Oc3ccc(NC(=O)N/N=C/c4ccc([N+](=O)[O-])cc4)cc3F)ccnc2cc1OCCCN1CCCC1` : 6.34

// sample `COc1cc2c(Oc3ccc(NC(=O)N/N=C/c4ccc([N+](=O)[O-])cc4)cc3F)ccnc2cc1OCCCN1CCC(C)CC1` , its pIC50 was 6.42

In plain terms, `COc1cc2c(Oc3ccc(NC(=O)N/N=C/c4ccc(C(F)(F)F)cc4)cc3F)ccnc2cc1OCCCN1CCC(C)CC1` has a documented pIC50 of 6.19

Field pIC50 (entry `C=CCc1cccc(/C=N/NC(=O)Nc2ccc(Oc3ccnc4cc(OCCCN5CCCCC5)c(OC)cc34)c(F)c2)c1O` ) reads 7.96

The reported pIC50 of the compound `COc1cc2c(Oc3ccc(NC(=O)N/N=C/c4ccc(F)cc4Cl)cc3F)ccnc2cc1OCCCN1CCC(C)CC1` was 6.72

Form: compound = `COc1cc2c(Oc3ccc(NC(=O)N/N=C/c4ccc(C(F)(F)F)cc4)cc3F)ccnc2cc1OCCCN1CCCCC1` ; pIC50 = 6.18

GET /value?item= `COc1cc2c(Oc3ccc(NC(=O)N/N=C/c4cccs4)cc3F)ccnc2cc1OCCCN1CCCCC1` &field=pIC50 returns 6.10

Short answer for `COc1cc2c(Oc3ccc(/C=N/NC(=O)Nc4ccccc4)cc3F)ccnc2cc1OCCCN1CCCCC1` : pIC50 was 6.55

Summary for this compound, `COc1cc2c(Oc3ccc(/C=N/NC(=O)Nc4ccc(F)cc4Br)cc3F)ccnc2cc1OCCCN1CCCCC1` : pIC50 is 7.01

Measured pIC50 of `COc1cc2c(Oc3ccc(NC(=O)N/N=C/c4ccncc4)cc3F)ccnc2cc1OCCCN1CCCCC1` : 6.08

Measured pIC50, `COc1cc2c(Oc3ccc(NC(=O)N/N=C/c4cc5ccccc5[nH]4)cc3F)ccnc2cc1OCCCN1CCCCC1` : 6.11

Form: compound = `COc1cc2c(Oc3ccc(NC(=O)N/N=C/c4ccc(O)cc4)cc3F)ccnc2cc1OCCCN1CCCCC1` ; pIC50 = 6.11

###

- Tested on: A549
- measurement.protocol: Cytotoxicity against human A549 cells after 72 hrs by MTT assay
- Assay type: functional, cell-based
- test.conditions: A549, 72 h
Would you kindly list IC50 for each of these compounds?
Number only, in nM; omit the unit.

Per the records, this compound ( `COc1ccc(/C=N/NC(=O)Nc2ccc(Oc3ccnc4cc(OCCCN5CCC(C)CC5)c(OC)cc34)c(F)c2)cc1` ) has IC50 equal to 430

Field IC50 (entry `C=CCc1cccc(/C=N/NC(=O)Nc2ccc(Oc3ccnc4cc(OCCCN5CCCCC5)c(OC)cc34)c(F)c2)c1OC` ) reads 250

For reference, reported IC50 for `COc1cc2c(Oc3ccc(NC(=S)N/N=C/c4ccccc4)cc3F)ccnc2cc1OCCCN1CCCCC1` stands at 330

GET /value?item= `COc1ccc(/C=N/NC(=O)Nc2ccc(Oc3ccnc4cc(OCCCN5CCCCC5)c(OC)cc34)c(F)c2)cc1` &field=IC50 returns 540

// sample `COc1cc2c(Oc3ccc(NC(=S)N/N=C/c4ccc(F)cc4Cl)cc3F)ccnc2cc1OCCCN1CCCCC1` , its IC50 was 230

// IC50 lookup, compound = `COc1ccc(/C=N/NC(=O)Nc2ccc(Oc3ccnc4cc(OCCCN5CCCCC5)c(OC)cc34)c(F)c2)c(OC)c1` , result: 1400

Briefly, IC50 measured for `COc1ccc(/C=N/NC(=O)Nc2ccc(Oc3ccnc4cc(OCCCN5CCCC5)c(OC)cc34)c(F)c2)cc1` : 680

Recorded IC50 (compound `COc1cc2c(Oc3ccc(NC(=O)N/N=C/c4ccc(F)cc4Cl)cc3F)ccnc2cc1OCCCN1CCCCC1` ): 130

###

Provide the recorded MRT inf for the entries that follow.
- measurement.protocol: Mean residence time (0 to infinity) in mouse at 20 mg/kg, iv or 35 mg/kg, po administered as single dose by LC/MS/MS analysis
- Assay type: ADME, organism-based
- test.conditions: in vivo
Just the number in h, nothing appended.

Briefly, MRT inf measured for `COc1cc2c(Oc3ccc(/C=N/NC(=O)Nc4ccc(F)cc4Br)cc3F)ccnc2cc1OCCCN1CCCCC1` : 14.8

The reported value for `C=CCc1cccc(/C=N/NC(=O)Nc2ccc(Oc3ccnc4cc(OCCCN5CCCCC5)c(OC)cc34)c(F)c2)c1O` in terms of MRT inf is 23.4

Looking up `COc1cc2c(Oc3ccc(NC(=S)N/N=C/c4ccccc4)cc3F)ccnc2cc1OCCCN1CCCCC1` , I found its MRT inf recorded as 24.3

Sure, the documented MRT inf for `COc1cc2c(Oc3ccc(NC(=O)N/N=C/c4ccc(F)cc4Cl)cc3F)ccnc2cc1OCCCN1CCCCC1` is 13.2
